Origin of values: patent US20240417469A1

system: T1, recombinant CD3D&E protein (human CD3-his tag) (human, UniProt P04234 22-105; P07766 23-126, limits assumed)
T1 construct: Analyte in Biacore; also called CD3D&E-His; CD3d&ε-His
T1 sequence (P04234 22-105 limits assumed, chain 1 of 2): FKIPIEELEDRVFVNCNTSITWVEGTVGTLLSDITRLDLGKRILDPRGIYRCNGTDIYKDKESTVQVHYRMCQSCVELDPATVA
T1 sequence (P07766 23-126 limits assumed, chain 2 of 2): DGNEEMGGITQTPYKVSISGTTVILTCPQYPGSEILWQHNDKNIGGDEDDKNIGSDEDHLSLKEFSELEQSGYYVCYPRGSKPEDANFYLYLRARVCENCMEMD
assay_details: SPR Biacore, Ab captured on Protein A;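 note: humanized antibodies on a Protein A chip, human CD3-his analyte flowed over in serial dilutions for 3 min, dissociation tracked 120–360 s on a Biacore T200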

binder | koff [s⁻¹]
Hu155A9B1-7 (antibody, V domains shown, humanized mAb) VH: EVQLQESGPGLVKPSETLSLTCTVSGGSISSYNVHWIRQPPGKGLEWIGRVRYNGDTSYNSALKSRVTISVDTSKNQFSLKLSSVTAADTAVYYCARGPYGGSSEPLFDYWGQGTMVTVSS VL: DIQMTQSPSSLSASVGDRVTITCKASQNINKYLNWFQQKPGKAPRLLIYTTNNLQTGIPSRFSGSGSGTDFTLTISSLQPEDFATYYCLQHNSGYTFGQGTKLEIK | 0.00547
Hu155A9B1-18 (antibody, V domains shown, humanized mAb) VH: EVQLQESGPGLVKPSETLSLTCTVSGFSLTSYNVHWVRQPPGKGLEWMGRVRYNGDTSYNSALKSRLTISRDTSKNQASLKLSSVTAADTAVYYCTRGPYGGSSEPLFDYWGQGTMVTVSS VL: DIQMTQSPSSLSASVGDRVTITCKASQNINKYLNWFQQKPGKAPRLLIYTTNNLQTGIPSRFSGSGSGTDFTLTISSLQPEDFATYFCLQHNSGYTFGQGTKLEIK | 0.00291
Hu155A9B1-10 (antibody, V domains shown, humanized mAb) VH: EVQLQESGPGLVKPSETLSLTCTVSGGSISSYNVHWVRQPPGKGLEWMGRVRYNGDTSYNSALKSRLTISRDTSKNQFSLKLSSVTAADTAVYYCTRGPYGGSSEPLFDYWGQGTMVTVSS VL: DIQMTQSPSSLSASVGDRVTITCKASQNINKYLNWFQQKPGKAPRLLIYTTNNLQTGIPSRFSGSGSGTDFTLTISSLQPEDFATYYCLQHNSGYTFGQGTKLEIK | 0.015
Hu153A6B1-9 (antibody, V domains shown, humanized mAb) VH: EVQLQESGPGLVKPSETLSLTCTVSGGSISSYNIHWVRQPPGKGLEWMGRIRYNGDTSYNSALKSRLTISRDTSKNQFSLKLSSVTAADTAVYYCARGPYGGSREPLFDYWGQGTMVTVSS VL: DIQMTQSPSSLSASVGDRVTITCKTSQNINKYLNWFQQKPGKAPKLLIYTTNNLQTGIPSRFSGSGSGTDFTLTISSLQPEDFATYYCLQHGSGYTFGQGTKLEIK | 0.0344
Hu192A7B9-6 (antibody, V domains shown, humanized mAb) VH: EVQLQESGPGLVKPSETLSLTCTVSGFSLTSYNVHWVRQPPGKGLEWMGRMRYNGDTSYNSALKSRLTISRDTSKNQVSLKLSSVTAADTAVYYCTRGPRGGYYSALFDYWGQGTMVTVSS VL: DIQMTQSPSSLSASVGDRVTITCKASQNINRYLNWYQQKPGKAPKLLIYIANSLQTGVPSRFSGSGSGTDFTLTISSLQPEDFATYYCLQHNSWYTFGQGTKLEIK | 0.024
Hu153A6B1-10 (antibody, V domains shown, humanized mAb) VH: EVQLQESGPGLVKPSETLSLTCTVSGGSISSYNIHWVRQPPGKGLEWMGRIRYNGDTSYNSALKSRLTISRDTSKNQFSLKLSSVTAADTAVYYCTRGPYGGSREPLFDYWGQGTMVTVSS VL: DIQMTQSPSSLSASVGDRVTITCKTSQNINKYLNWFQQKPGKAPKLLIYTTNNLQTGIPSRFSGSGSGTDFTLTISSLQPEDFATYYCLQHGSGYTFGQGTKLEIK | 0.0568
Hu153A6B1-15 (antibody, V domains shown, humanized mAb) VH: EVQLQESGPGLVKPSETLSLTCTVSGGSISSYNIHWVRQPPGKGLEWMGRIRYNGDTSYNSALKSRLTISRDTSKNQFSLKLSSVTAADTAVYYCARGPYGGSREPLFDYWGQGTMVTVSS VL: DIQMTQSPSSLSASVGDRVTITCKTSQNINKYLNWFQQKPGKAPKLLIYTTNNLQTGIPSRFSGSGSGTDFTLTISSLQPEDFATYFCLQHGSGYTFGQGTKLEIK | 0.0151
Hu155A9B1-14 (antibody, V domains shown, humanized mAb) VH: EVQLQESGPGLVKPSETLSLTCTVSGGSISSYNVHWVRQPPGKGLEWIGRVRYNGDTSYNSALKSRVTISRDTSKNQFSLKLSSVTAADTAVYYCARGPYGGSSEPLFDYWGQGTMVTVSS VL: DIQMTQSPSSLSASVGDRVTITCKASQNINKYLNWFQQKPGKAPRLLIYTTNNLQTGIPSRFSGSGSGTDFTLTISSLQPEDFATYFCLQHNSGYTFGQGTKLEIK | 0.0187
Hu192A7B9-14 (antibody, V domains shown, humanized mAb) VH: EVQLQESGPGLVKPSETLSLTCTVSGGSISSYNVHWVRQPPGKGLEWIGRMRYNGDTSYNSALKSRVTISRDTSKNQFSLKLSSVTAADTAVYYCARGPRGGYYSALFDYWGQGTMVTVSS VL: DIQMTQSPSSLSASVGDRVTITCKASQNINRYLNWYQQKPGKAPKLLISIANSLQTGIPSRFSGSGSGTDFTLTISSLQPEDFATYYCLQHNSWYTFGQGTKLEIK | 0.0179
Hu155A9B1-6 (antibody, V domains shown, humanized mAb) VH: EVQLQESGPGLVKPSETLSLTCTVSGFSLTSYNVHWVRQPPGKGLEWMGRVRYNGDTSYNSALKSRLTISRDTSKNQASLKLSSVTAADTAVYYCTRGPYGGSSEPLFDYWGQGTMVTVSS VL: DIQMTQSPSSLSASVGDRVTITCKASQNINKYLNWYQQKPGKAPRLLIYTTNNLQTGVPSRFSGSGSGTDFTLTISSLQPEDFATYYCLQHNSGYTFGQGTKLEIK | 0.00593
